- System: Streptococcus
- test protocol: GAS UMAA2166 growth inhibition – luminescence, BacTiterGlo, counter-screen for streptokinase expression inhibitor project, dose response (AID 1915);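 note: potency for reduction of bacterial viability or growth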
- Type: functional, organism-based
Activity calls are given as the source filed them.
Listed molecules paired with reported EC50

Worked cases, EC50 given:
NC(=O)N/N=C(/CCCCCC/C(=N\NC(N)=O)c1ccccc1)c1ccccc1
> 150 µM (not active)
CN1C(=O)/C(=C/c2ccccc2Cl)Sc2ccc(C(=O)NCc3cccnc3)cc21
16.1 µM (active)
COc1ccc2c(c1)c(CC(=O)NCc1cc([N+](=O)[O-])ccc1O)c(C)n2C(=O)c1ccc(Cl)cc1
> 150 µM (not active)

Okay, now this molecule:
Give me measured EC50, please, for this molecule: FC(F)(F)c1cc(-c2ccco2)nc(NCc2ccc(Cl)cc2)n1 > 150 µM (not active)

---

Listed molecules paired with reported IC50
- system name: Large T antigen (Simian virus 40, UniProt P03070);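 note: Confirmatory-stage PubChem screen for compounds that inhibit SV40 T antigen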
- Sequence (P03070 whole entry): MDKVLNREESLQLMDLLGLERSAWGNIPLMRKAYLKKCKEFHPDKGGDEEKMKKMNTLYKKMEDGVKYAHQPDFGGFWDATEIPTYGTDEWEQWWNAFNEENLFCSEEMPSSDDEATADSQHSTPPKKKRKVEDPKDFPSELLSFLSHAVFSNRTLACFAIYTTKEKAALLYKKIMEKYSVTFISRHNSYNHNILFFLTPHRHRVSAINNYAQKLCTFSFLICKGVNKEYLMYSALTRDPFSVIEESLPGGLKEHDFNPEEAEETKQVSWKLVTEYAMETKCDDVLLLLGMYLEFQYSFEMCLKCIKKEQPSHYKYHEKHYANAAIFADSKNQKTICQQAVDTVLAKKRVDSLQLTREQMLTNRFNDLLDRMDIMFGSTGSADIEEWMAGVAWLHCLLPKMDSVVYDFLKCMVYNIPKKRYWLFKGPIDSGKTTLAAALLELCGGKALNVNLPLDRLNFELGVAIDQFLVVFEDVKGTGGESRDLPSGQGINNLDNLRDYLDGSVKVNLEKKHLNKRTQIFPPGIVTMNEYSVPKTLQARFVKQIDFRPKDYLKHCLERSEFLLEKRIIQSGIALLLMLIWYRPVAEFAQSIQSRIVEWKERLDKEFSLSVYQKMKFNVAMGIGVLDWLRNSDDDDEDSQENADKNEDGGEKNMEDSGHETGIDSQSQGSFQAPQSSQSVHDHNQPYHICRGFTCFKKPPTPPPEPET
- Type: functional, Betapolyomavirus macacae
Active and inactive are the calls of the source.

Worked cases, IC50 given:
COc1cc(OC)c(C2CC(=O)N3CN(c4ccc(C)cc4)CSC3=C2C#N)cc1OC (stereo not drawn)
43.4 µM (active)
O=c1/c(=C\c2cc([N+](=O)[O-])cc([N+](=O)[O-])c2O)sc2nc3ccccc3n12
52.8 µM (active)

Give me measured IC50, please, for this molecule: CC1=C(C)C[S+]([O-])N(S(=O)(=O)c2ccccc2)C1 (stereo not drawn) 19 µM (active)

---

- system name: RNA-binding protein pos-1 (Caenorhabditis elegans, UniProt G5EF15)
- Sequence (G5EF15 whole entry, the tested form may be a part): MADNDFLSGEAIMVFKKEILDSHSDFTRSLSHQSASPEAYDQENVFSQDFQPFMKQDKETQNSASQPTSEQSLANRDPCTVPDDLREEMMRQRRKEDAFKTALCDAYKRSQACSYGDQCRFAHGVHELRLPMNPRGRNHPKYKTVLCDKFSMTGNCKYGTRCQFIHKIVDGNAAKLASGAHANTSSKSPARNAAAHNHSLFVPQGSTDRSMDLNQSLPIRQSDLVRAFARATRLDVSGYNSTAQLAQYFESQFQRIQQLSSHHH
- test protocol: disruptors of C. elegans POS-1 RNA interaction – biochemical, fluorescence polarization, dose response (AID 1964);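 note: purified POS-1 fused to maltose binding protein made in E. coli; potency of compounds blocking POS-1 binding to fluorescent RNA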
Calls of active or inactive are those of the source.
Listed compounds paired with reported EC50

Cc1ccc(NCC(=O)N/N=C/c2ccc(C(=O)O)cc2)cc1
> 300 µM (not active)
O=C(N1CCOCC1)N1CCC(n2nnc3cc(F)ccc32)CC1
39.2 µM (active)

Give me measured EC50, please, for this compound: c1ccc(-c2cn3nc4c(nc3n2)CCCC4)cc1 14.3 µM (active)

---

Target protein (sequence): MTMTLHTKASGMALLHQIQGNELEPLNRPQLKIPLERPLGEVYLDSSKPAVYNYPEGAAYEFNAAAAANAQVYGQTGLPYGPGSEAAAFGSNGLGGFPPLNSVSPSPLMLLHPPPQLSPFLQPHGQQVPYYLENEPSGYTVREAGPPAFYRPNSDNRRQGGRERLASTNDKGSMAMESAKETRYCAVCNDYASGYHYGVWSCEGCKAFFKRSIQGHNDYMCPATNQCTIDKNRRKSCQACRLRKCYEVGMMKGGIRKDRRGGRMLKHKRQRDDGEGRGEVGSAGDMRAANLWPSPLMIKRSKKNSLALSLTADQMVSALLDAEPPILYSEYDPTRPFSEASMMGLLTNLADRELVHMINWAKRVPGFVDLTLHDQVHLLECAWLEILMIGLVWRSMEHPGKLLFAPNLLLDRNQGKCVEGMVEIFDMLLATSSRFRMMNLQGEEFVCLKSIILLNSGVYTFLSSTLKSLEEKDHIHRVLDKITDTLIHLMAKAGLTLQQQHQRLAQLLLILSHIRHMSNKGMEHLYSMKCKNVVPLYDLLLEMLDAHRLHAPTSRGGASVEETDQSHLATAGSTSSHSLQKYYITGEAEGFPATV
Calls of active or inactive are those of the source.
test readout: IC50

Worked cases, IC50 given:
O=c1cc(CSc2nnnn2-c2ccccc2)nc(Nc2ccc(F)cc2)[nH]1
> 50 µM (not active)
Oc1c(/C=N/c2cccc3cccnc23)sc2ccccc12
5.15 µM (active)
COC(=O)COc1ccc(S(=O)(=O)Nc2ccc3c(c2)OCO3)cc1
> 50 µM (not active)

Okay, now this compound:
Give me measured IC50, please, for this compound: CC1CCCN(C(=O)COC(=O)c2n[nH]c3ccccc23)C1 (centres undefined) > 50 µM (not active)

---

- Tested on: Streptococcus sp. 'group A'
- test protocol: Streptococcus pyogenes SK(-)GAS viability under kanamycin – luminescence, BacTiterGlo, confirmation, counter-screen for streptokinase expression inhibitor project, dose response (AID 1900)
- Format: functional, organism-based
Structures can show the parent of a compound that is named as a salt. Active and inactive are the calls of the source.
Listed compounds paired with reported EC50

COc1ccc2c(c1)c(CC(=O)NCc1cc([N+](=O)[O-])ccc1O)c(C)n2C(=O)c1ccc(Cl)cc1
19.1 µM (active)
CN(C)CCOc1ccc(/C(=C(/CCCl)c2ccccc2)c2ccccc2)cc1 [TOREMIFENE CITRATE]
5.82 µM (active)
Cc1cc(C)nc(SCC(=O)NC2=NN=C(c3ccc(Br)cc3)CS2)n1
2.6 µM (active)

State, for Streptococcus sp. 'group A', measured EC50 of the compound listed here: Cc1ccc(F)c(NC(=O)/C(C#N)=C(\O)c2ccc(C(C)(C)C)cc2)c1 16.7 µM (active)

---

- system name: Corticotropin-releasing factor receptor 2/Corticotropin-releasing factor-binding protein (Homo sapiens, UniProt P24387+Q13324)
- Sequence (Q13324 whole entry): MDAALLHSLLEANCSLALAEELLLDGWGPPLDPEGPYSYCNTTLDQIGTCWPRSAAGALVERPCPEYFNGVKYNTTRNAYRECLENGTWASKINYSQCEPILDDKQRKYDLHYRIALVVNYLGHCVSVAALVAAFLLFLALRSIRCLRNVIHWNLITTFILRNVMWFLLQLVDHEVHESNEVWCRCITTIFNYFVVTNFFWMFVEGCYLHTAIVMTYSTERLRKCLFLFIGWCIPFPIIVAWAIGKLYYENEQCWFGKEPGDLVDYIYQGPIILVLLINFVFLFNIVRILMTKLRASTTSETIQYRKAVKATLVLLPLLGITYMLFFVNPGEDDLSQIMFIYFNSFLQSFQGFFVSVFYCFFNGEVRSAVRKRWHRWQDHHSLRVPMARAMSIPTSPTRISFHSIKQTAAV
- Sequence (P24387 whole entry): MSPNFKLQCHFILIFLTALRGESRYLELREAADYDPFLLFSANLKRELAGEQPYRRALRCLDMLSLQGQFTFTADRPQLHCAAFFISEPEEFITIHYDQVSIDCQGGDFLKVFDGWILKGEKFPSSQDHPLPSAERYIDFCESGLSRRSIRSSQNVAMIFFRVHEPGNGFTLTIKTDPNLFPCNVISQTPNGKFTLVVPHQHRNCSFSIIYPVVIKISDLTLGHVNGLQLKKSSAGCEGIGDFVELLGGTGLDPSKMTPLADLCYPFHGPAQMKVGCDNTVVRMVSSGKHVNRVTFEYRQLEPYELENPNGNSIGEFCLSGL
- test protocol: activators of CRF receptor 2 with binding protein – uHTS hits, confirmation (AID 602473)
- Type: functional
- cond: read-out: EC50_Mean
Active and inactive are the calls of the source.
Pick from label 1 for active, label 0 for inactive when you respond.

Recorded results for 4 molecules are shown here.
COc1cc2nc(SCc3c(C)noc3C)n(CCC3=CCCCC3)c(=O)c2cc1OC
label 0
COc1ccc(/C=c2\s/c(=C/C(=O)c3ccc(C)cc3)[nH]c2=O)c(OC)c1
label 1
Cc1nn(-c2ccccc2)c(NC(=O)c2cccs2)c(-c2ccccc2Cl)c1=O
label 0
COC(=O)C(CC(=O)Nc1cc(C)ccc1C)Nc1ccccc1OC (stereo not given)
label 0

API: the following record is the query input.
What call does the record list for CCOc1ccc(N2C(=O)NC(=O)/C(=C\c3c[nH]c4ccccc34)C2=O)cc1 ? label 1

Taken from ChEMBL document CHEMBL1201862.
